# System: E57 (patient-derived glioblastoma stem cells of mesenchymal subtype);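 note: cell Painting imaging in 384-well plates, CellProfiler features reduced to at least 20 principal components, Euclidean distance versus same-plate DMSO vehicle wells (0.1% v/v), median over six images per well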
# assayComment: phenotypic distance (Euclidean, principal components) from DMSO controls (arbitrary units); higher = stronger morphological change
# conditionSummary: 37.037 nM; exposure time: 72 h
Where a name gives a salt, the structure may show the parent alone.
Measured phenotypic distance of individual entries
Hey, just send me the number, nothing else.

| compound | measured |
| --- | --- |
| C/C=C(\C)C(=O)N[C@@H](c1ccccc1)[C@@H](O)C(=O)O[C@H]1C[C@@]2(O)[C@@H](OC(=O)c3ccccc3)[C@@H]3[C@]4(OC(C)=O)CO[C@@H]4C[C@H](O)[C@@]3(C)C(=O)[C@H](OC(C)=O)C(=C1C)C2(C)C [Cephalomannine] | 5.59 |
| CC(C)C[C@H](NC(=O)[C@H](Cc1ccccc1)NC(=O)c1cnccn1)B(O)O [Bortezomib] | 11.2 |
| CC(C)C[C@H](NC(=O)[C@H](Cc1ccccc1)C[C@@H](O)[C@H](Cc1ccccc1)NC(=O)OC(C)(C)C)C(=O)N[C@@H](Cc1ccccc1)C(N)=O [L-685,458] | 0.959 |

**Q:** Would you kindly share the measured phenotypic distance for COc1cc2nc(N3CCN(C(=O)c4ccco4)CC3)nc(N)c2cc1OC [Prazosin hydrochloride] ?
**A:** 0.642
